Tested on: Saccharomyces cerevisiae
Test: protein stability index of tFT-peptide fusion (C-terminal peptide) (PSI (0-1 scale)); higher = more stable (slower turnover)
Details: genetic background: wild type; temperature: 30 C
Decision: protein stability index compared against 0.7; not below it gives class 1, below it gives class 0.

| Entry Sequence | Label Class |
| --- | --- |
| VLSVISAVFGLI [PLB1 C-terminal 12 aa] | class 0 |
| DNVEQRVLKQYM [EMC3 C-terminal 12 aa] | class 0 |
| FFRQWWDIIQSK [YMR316C-A C-terminal 12 aa] | class 0 |
| EANLKVLNGLEI [YPR148C C-terminal 12 aa] | class 0 |
| AVNTLLWQEQYS [YDR042C C-terminal 12 aa] | class 1 |
| NMEKFVRKCWKD [MKK1 C-terminal 12 aa] | class 1 |
| RINQDIKKVKLL [EMP46 C-terminal 12 aa] | class 0 |
| PGWDFNVQIFAI [HRD3 C-terminal 12 aa] | class 0 |
| FRHNRSNKKLGC [GEX1 C-terminal 12 aa] | class 1 |
| QEKEHKKHTVAR [CAJ1 C-terminal 12 aa] | class 0 |
| IQEDSPVMDNNT [FAP1 C-terminal 12 aa] | class 0 |
| KCVNCGHRWKEN [RPC11 C-terminal 12 aa] | class 0 |

====

System: Saccharomyces cerevisiae
Assay: protein stability index of tFT-peptide fusion in deletion strain of DAS1 (PSI (0-1 scale)); higher = more stable (slower turnover)

| Entry Sequence | protein stability index |
| --- | --- |
| FSMRCTFRYWVN | 0.522 |
| LVVYLSFVACIN | 0.116 |
| LVVYLSCVACFN | 0.076 |
| ARWRNGLWRGAS | 0.701 |
| CTSCGYIFRTNN | 0.706 |
| PSLTASFWRVVG | 0.693 |
| CTSCGYKFRTAN | 0.673 |
| PSLAASFWIVVG | 0.421 |
| PGLAASFWRVVG | 0.695 |
| PSLAASFWRVTG | 0.687 |
| ARCRVGLWRGAS | 0.706 |
| RLIQDLPVQFLN | 0.588 |
| AKHKKGQKQKIN | 0.829 |
| PSLAASFWRVIG | 0.677 |
| ARWRVGLWCGAS | 0.561 |
| PSLAASFWRVRG | 0.683 |
| LVVYLSCVACIM | 0.022 |
| KKHKKGIKQKIN | 0.588 |
| KKHKKGQKQKSN | 0.615 |

====

Test system: Saccharomyces cerevisiae
Assay: protein stability index of tFT-peptide fusion (C-terminal peptide) (PSI (0-1 scale)); higher = more stable (slower turnover)
Settings: genetic background: wild type; temperature: 30 C
Decision: protein stability index compared against 0.7; not below it gives 1, below it gives 0.

| Entry Sequence | Label Class |
| --- | --- |
| YVVCMNKSSFRG | 1 |
| SPLLSSPSPFSL | 1 |
| LSSSLLSLLYNF | 0 |
| QEESRARKGTQT | 0 |
| GDYITIGGGLIW | 1 |
| PPPSCPPPPSRS | 1 |
| MVRNCPYSLSFL | 1 |
| GKSLLPATYDYY | 0 |
| RGFIYCSFVVRL | 0 |
| PDCVRVSGLGLS | 0 |
| GGVPGEGTGGRE | 0 |
| LLRPPAPPPLPT | 0 |
| VPVISYVQTSIA | 0 |
| EGEGAGRWCGRG | 0 |
| LFRPGDLVYHSV | 1 |
